Source listed as ChEMBL document CHEMBL3244287.

Target: Beta-2 adrenergic receptor (Cavia porcellus) (UniProt Q8K4Z4)
Sequence (Q8K4Z4 whole entry, looked up): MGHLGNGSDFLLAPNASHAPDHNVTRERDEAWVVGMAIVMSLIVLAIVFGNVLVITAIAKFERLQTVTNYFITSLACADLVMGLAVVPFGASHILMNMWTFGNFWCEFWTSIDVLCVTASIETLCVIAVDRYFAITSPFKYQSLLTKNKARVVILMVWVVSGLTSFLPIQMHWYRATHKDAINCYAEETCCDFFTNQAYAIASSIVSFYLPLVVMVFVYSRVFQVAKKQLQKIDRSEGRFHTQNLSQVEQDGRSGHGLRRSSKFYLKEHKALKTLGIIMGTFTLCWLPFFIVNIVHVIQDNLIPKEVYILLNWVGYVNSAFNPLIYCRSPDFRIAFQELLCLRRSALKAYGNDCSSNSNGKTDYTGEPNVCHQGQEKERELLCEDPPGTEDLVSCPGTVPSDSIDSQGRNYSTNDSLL
Conditions: Trachea
Description: Agonist activity at beta-2 adrenergic receptor in guinea pig trachea assessed as relaxation of spontaneously contracted muscle
ED50 listing for selected molecules.

>  <molecule>
CC(C)(C)NCC(O)COc1ccc(O)c(O)c1 (stereo unspecified)

>  <ED50>
3.2 ×10⁻¹⁰ M

$$$$
>  <molecule>
CC(C)NCC(O)c1ccc(O)c(NS(C)(=O)=O)c1 (stereo unspecified)

>  <ED50>
2.6 ×10⁻⁸ M

$$$$
>  <molecule>
CC(C)NCC(O)c1cccc(O)c1 (stereo unspecified)

>  <ED50>
4.5 ×10⁻⁸ M

$$$$
>  <molecule>
CC(C)NCC(O)c1ccc(O)c(O)c1 (stereo unspecified)

>  <ED50>
7.1 nM

$$$$
>  <molecule>
CC(C)(C)NCC(O)COc1cccc(O)c1 (stereo unspecified)

>  <ED50>
2.1 ×10⁻⁸ M

$$$$

Q) # query: ED50 of entry CC(C)NCC(O)c1ccc(O)cc1 (stereo unspecified)
A) 1.1 ×10⁻⁷ M

Q) Same question, CC(C)(C)NCC(O)COc1ccc(O)c(NS(C)(=O)=O)c1 (stereo unspecified) this time
A) 6.6 nM

Q) Same question, CC(C)(C)NCC(O)COc1ccc(NS(C)(=O)=O)c(O)c1 (stereo unspecified) this time
A) 3400 nM

Q) Same question, CC(C)(C)NCC(O)COc1ccc(CS(C)(=O)=O)cc1 (stereo unspecified) this time
A) 4.8 ×10⁻⁵ M

Q) Same question, `CC(C)(C)NC[C@H](O)c1ccc(O)c(O)c1` this time
A) 1.3 nM

Q) Same question, CC(C)(C)NCC(O)COc1ccc(O)cc1 (stereo unspecified) this time
A) 1.3 ×10⁻⁸ M

====

Beta-1 adrenergic receptor (Cavia porcellus) ED25 data
valueKind: ED25 (×10⁻⁸ M)

Illustrative cases are given below, each with its answer.
>  <compound>
CC(C)NCC(O)c1ccc(O)cc1 (stereo not given)

>  <readingUnit>
×10⁻⁸ M

>  <testValue>
7.7

$$$$
>  <compound>
CC(C)NCC(O)c1cccc(O)c1 (stereo not given)

>  <readingUnit>
×10⁻⁸ M

>  <testValue>
3.7

$$$$

a. CC(C)(C)NCC(O)COc1ccc(O)cc1 (stereo not given)
b. CC(C)NCC(O)c1ccc(O)c(NS(C)(=O)=O)c1 (stereo not given)
Q) Between the two listed entries a and b , which has its ED25 at the higher number? Please respond with the label that marks your chosen entry.
A) b

====

Organism: Cavia porcellus
Assay: Selectivity ratio of ED50 for beta-2 adrenergic receptor in guinea pig trachea over ED50 for beta-1 adrenergic receptor in guinea pig atria
valueKind: Ratio ED50

a. CC(C)(C)NCC(O)COc1ccc(O)c(NS(C)(=O)=O)c1 (stereo not given)
b. CC(C)(C)NCC(O)COc1cccc(O)c1 (stereo not given)
c. CC(C)(C)NCC(O)COc1ccc(O)c(O)c1 (stereo not given)
Q) Could you arrange the 3 compounds above by Ratio ED50, starting with the largest number? As an answer, provide the labels arranged in the order called for.
A) a, b, c

====

Beta-1 adrenergic receptor (Cavia porcellus) (UniProt B0FL73) ED25 data
Sequence (B0FL73 1-467): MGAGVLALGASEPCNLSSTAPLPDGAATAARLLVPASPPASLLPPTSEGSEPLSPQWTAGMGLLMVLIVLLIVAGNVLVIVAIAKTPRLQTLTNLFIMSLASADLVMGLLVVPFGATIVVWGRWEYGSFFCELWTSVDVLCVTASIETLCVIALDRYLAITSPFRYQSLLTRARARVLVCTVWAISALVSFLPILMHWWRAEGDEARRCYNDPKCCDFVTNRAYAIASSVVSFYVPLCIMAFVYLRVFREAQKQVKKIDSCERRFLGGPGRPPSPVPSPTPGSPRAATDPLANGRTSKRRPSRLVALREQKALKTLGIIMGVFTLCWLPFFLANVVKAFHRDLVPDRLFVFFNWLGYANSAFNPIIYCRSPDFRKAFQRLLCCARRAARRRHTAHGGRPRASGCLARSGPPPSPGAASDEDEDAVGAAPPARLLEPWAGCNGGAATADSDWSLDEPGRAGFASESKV

Illustrative cases are given below, each with its answer.
>  <compound>
CC(C)(C)NC[C@H](O)c1ccc(O)c(O)c1

>  <valueKind>
ED25

>  <testValue>
7.1 nM

$$$$
>  <compound>
CC(C)(C)NCC(O)COc1ccc(NS(C)(=O)=O)c(O)c1 (stereo unspecified)

>  <valueKind>
ED25

>  <testValue>
9 ×10⁻⁵ M

$$$$
>  <compound>
CC(C)(C)NCC(O)COc1cccc(O)c1 (stereo unspecified)

>  <valueKind>
ED25

>  <testValue>
5.4 ×10⁻⁷ M

$$$$
>  <compound>
CC(C)(C)NCC(O)COc1ccc(O)c(O)c1 (stereo unspecified)

>  <valueKind>
ED25

>  <testValue>
1.1 ×10⁻¹¹ M

$$$$
>  <compound>
CC(C)(C)NCC(O)COc1ccc(CS(C)(=O)=O)cc1 (stereo unspecified)

>  <valueKind>
ED25

>  <testValue>
4.8 ×10⁻⁵ M

$$$$

Turning now to a further compound:
Q) # query: ED25 of entry CC(C)(C)NCC(O)COc1ccc(O)c(NS(C)(=O)=O)c1 (stereo unspecified)
A) 1200 nM
